Biological target: T1, human CLDN6, endogenously expressed on cancer cell lines (human, UniProt P56747 1-220)
T1 construct: also called Endogenous CLDN6+; CLDN6 on ARK2, OVCA429, UMUC4 cells
T1 sequence: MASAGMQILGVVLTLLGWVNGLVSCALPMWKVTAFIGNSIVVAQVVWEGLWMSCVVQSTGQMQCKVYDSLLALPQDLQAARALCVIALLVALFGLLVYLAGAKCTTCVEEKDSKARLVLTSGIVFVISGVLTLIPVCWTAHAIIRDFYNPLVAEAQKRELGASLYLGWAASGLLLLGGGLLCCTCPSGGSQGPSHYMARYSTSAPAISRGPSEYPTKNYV
Assay: FACS, OVCA429 cells, 1.5 ug Ab
A collection of binders and their measured FACS signal
Would you mind answering with just the numeric figure?

Consider the binder AB11-chim (antibody, V domains shown, Parental antibody prior to humanization ('chim'); also called pre-humanized form of AB11) VH: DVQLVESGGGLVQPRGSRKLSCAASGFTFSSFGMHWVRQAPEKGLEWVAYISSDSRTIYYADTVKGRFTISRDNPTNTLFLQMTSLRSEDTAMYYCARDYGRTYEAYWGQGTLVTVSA VL: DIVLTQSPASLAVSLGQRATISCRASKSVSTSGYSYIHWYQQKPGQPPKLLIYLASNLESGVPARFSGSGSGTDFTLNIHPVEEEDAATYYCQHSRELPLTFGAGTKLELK . State its measured FACS signal.
2440

Consider the binder AB1-7 (antibody, V domains shown, Humanized; also called humanized AB 1-7) VH: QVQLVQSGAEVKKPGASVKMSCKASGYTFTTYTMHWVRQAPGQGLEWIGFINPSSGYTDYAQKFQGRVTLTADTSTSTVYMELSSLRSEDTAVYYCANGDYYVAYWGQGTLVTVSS VL: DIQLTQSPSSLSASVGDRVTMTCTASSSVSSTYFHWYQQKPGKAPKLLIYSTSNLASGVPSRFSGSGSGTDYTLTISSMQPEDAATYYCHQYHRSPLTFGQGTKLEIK . State its measured FACS signal.
44700

Consider the binder AB4-5 (antibody, V domains shown, Humanized; also called humanized AB 4-5) VH: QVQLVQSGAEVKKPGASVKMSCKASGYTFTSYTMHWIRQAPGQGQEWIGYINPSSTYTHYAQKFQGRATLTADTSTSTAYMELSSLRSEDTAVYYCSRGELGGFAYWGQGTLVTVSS VL: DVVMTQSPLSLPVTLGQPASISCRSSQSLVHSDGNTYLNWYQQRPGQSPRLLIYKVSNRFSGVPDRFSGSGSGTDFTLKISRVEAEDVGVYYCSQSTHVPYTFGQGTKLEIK . State its measured FACS signal.
1350

Consider the binder AB4-chim (antibody, V domains shown, Parental antibody prior to humanization ('chim'); also called pre-humanized form of AB4) VH: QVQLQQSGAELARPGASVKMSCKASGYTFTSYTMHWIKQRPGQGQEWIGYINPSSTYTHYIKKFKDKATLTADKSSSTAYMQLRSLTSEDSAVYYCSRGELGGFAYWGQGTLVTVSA VL: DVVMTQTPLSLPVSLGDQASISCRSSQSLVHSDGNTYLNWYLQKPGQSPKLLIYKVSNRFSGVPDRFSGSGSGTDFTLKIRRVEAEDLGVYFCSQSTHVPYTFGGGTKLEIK . State its measured FACS signal.
64800

Consider the binder AB1-Chim (antibody, V domains shown, Parental antibody prior to humanization ('chim'); also called pre-humanized form of AB1) VH: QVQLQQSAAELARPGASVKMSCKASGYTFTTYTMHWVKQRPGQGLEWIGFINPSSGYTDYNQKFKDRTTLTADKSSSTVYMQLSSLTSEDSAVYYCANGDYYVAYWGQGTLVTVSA VL: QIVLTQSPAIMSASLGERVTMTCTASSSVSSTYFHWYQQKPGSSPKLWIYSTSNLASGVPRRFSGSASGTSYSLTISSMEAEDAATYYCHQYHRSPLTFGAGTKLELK . State its measured FACS signal.
177000
